Property: inhibition; scope: individual molecules
assay: gst-4 reporter inhibition in live C. elegans – whole organism, uHTS, GFP/RFP fluorescence ratio, strain VP596, SKN-1 inhibitor project, primary screen (AID 624304); conditions: C. elegans VP596 Pgst-4::GFP/RFP ratio, acrylamide-induced, 24 h; at 21.8 µM; stronger effect = higher value
Hit rate of the full screen: of about 360,000 compounds, about 1,800 (0.5%) were called active. The entries come from a sample that favours actives as a whole.

COc1cccc(NC(=O)C2CCCN(c3ncnc4c3nc3n4CCCCC3)C2)c1 (stereo not given) | 35.4% (active)
CCC(C)NC(=O)c1ccccc1NC(=O)c1ccccc1N(C)S(C)(=O)=O (stereo not given) | -2.01% (inactive)
Cc1nc2nc(CSc3nc4ccccc4s3)cc(=O)n2[nH]1 | 31.9% (active)

Looking up CCOC(=O)c1cccc(NC(=O)C2CCN(c3ncnc4c3nc3n4CCCCC3)CC2)c1 , I found its inhibition recorded as -10.7% (inactive)

Looking up O=C(NCCc1cccc(F)c1)C1CCCN(c2nc3ccccc3s2)C1 (stereo not given) , I found its inhibition recorded as 10.3% (inactive)

Looking up O=C(Nc1ccc(Cl)c(Cl)c1)N1CC=C(c2ccccc2)CC1 , I found its inhibition recorded as 13.1% (inactive)

Looking up Cc1ccc(-n2ncc3c(=O)n(-c4ccc(C)c(C)c4)c(-c4ccco4)nc32)cc1 , I found its inhibition recorded as 18.1% (inactive)

Looking up CCC(=O)Nc1ccc(S(=O)(=O)Nc2c(NC)c3ccccc3oc2=O)cc1 , I found its inhibition recorded as 9.74% (inactive)

Looking up Fc1ccc(N2N=C(c3cccs3)CC2c2ccco2)c(F)c1 (stereo not given) , I found its inhibition recorded as 12.6% (inactive)

Looking up OCc1nc(CO)n(Cc2ccccc2)n1 , I found its inhibition recorded as -5.44% (inactive)

* * *

test: gst-4 reporter inhibition in live C. elegans – whole organism, uHTS, GFP/RFP fluorescence ratio, strain VP596, SKN-1 inhibitor project, primary screen (AID 624304); conditions: C. elegans VP596 Pgst-4::GFP/RFP ratio, acrylamide-induced, 24 h; at 21.8 µM
Out of some 360,000 compounds screened, about 1,800 (0.5%) were called active.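 The calls were made as follows: active = interference check ratio from 0.5 to 1.5 plus GFP to RFP signal ratio inhibition reaching or exceeding a fixed threshold (cut at about 30% in these data, passing the limit was not always enough); inactive = the rest.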 What follows is part of a selection rich in actives, with near analogues and random picks from the rest.
Select the correct class. Options are T (active), F (inactive) and nothing else.

O=C(/C=C/c1ccco1)NC(=S)N1CCCCC1 | F
O=C(NC(=S)Nc1ccc(Cl)c(C(=O)O)c1)c1cncc(Br)c1 | F
O=C(NCCCn1ccnc1)C(=O)NCC1OCCN1S(=O)(=O)c1cc(F)ccc1F (stereo unspecified) | F
COc1cccc(NC(=O)C(C)Oc2ccccc2)c1 (stereo unspecified) | T
COc1cc2[nH]c(=S)n(CCN3CCCCC3C)c(=O)c2cc1OC (stereo unspecified) | T

# input for lookup
Answer briefly: the call reported for O=C(NC(=S)Nc1ccc(S(=O)(=O)Nc2ncccn2)cc1)c1cccc(Br)c1 in this assay.
F
